- System: Heart
- EXPERIMENTAL PROTOCOL: Cardioprotective activity against Langendorff isolated mouse heart ischemia-reperfusion model assessed as improvement in RPP at 1 uM administered for 10 mins during start of 40 mins reperfusion period post 30 mins ischemic induction
- Assay type: functional, tissue-based
Calls of active or inactive are those of the source. The calls are words filed in the database; no cut-off is given here. Starred links: 1 amine or outer side, 2 acyl side, 3 side chain; linkers in the order of their positions; H or OH if unused. Non-standard residues stand in square brackets, D forms with d. Residues, ends and D or L forms follow the SMILES beside them. Phe(4-Br) = N[C@@H](Cc1ccc(Br)cc1)C(=O)O; X1 = N=C(N)NCCCN(N[*:1])C(=O)[*:2]; azaLeu = CC(C)CN(N[*:1])C(=O)[*:2]; Nle = CCCC[C@H](N)C(=O)O; Aib = CC(C)(N)C(=O)O
PROPERTY LABEL: Activity

>>> obs_value("CCCC[C@H](NC(=O)[C@@H]1CCCN1C(=O)CNC(=O)[C@H](CCCCN)NC(=O)[C@H](Cc1c[nH]cn1)NC(=O)[C@H](CO)NC(=O)[C@H](CC(C)C)NC(=O)N(CCCNC(=N)N)NC(=O)[C@@H]1CCCN1C(=O)[C@H](CCCNC(=N)N)NC(=O)[C@H](CCC(N)=O)NC(=O)[C@H](CCCNC(=N)N)NC(=O)[C@H](CCCNC(=N)N)NC(=O)[C@H](Cc1ccccc1)NC(=O)[C@@H](N)CCCCN)C(=O)NC(C)(C)C(=O)N[C@@H](Cc1ccc(Br)cc1)C(=O)O (H-KFRRQRP[X1]LSHKGP[Nle][Aib][Phe(4-Br)]-OH)")
"Active"
>>> obs_value("CCCC[C@H](NC(=O)[C@@H]1CCCN1C(=O)CNC(=O)[C@H](CCCCN)NC(=O)[C@H](Cc1c[nH]cn1)NC(=O)[C@H](CO)NC(=O)N(CC(C)C)NC(=O)[C@H](CCCNC(=N)N)NC(=O)[C@@H]1CCCN1C(=O)[C@H](CCCNC(=N)N)NC(=O)[C@H](CCC(N)=O)NC(=O)[C@H](CCCNC(=N)N)NC(=O)[C@H](CCCNC(=N)N)NC(=O)[C@H](Cc1ccccc1)NC(=O)[C@@H](N)CCCCN)C(=O)NC(C)(C)C(=O)N[C@@H](Cc1ccc(Br)cc1)C(=O)O (H-KFRRQRPR[azaLeu]SHKGP[Nle][Aib][Phe(4-Br)]-OH)")
"Active"
